# Test system: HEL
# Assay Text: Cytotoxicity against HEL cells assessed as inhibition of cell growth incubated under dark condition in presence of 3-cyclopropyl-1-(3-{5-[(morpholin-4-yl)methyl]-1H-1,3-benzodiazol-2-yl}-1H-pyrazol-4-yl)urea
# Assay type: functional, cell-based
# Condition Details: Homo sapiens
Observation Type: IC50 (nM)

[[record]]
smiles_structure = "Cc1cnc(Nc2ccc(N3CCNCC3)cc2)nc1Nc1cccc(S(=O)(=O)NC(C)(C)C)c1"
observation_type = "IC50"
measured_number = 1410


====

# System: HEL
# Assay Text: Cytotoxicity against HEL cells assessed as inhibition of cell growth incubated in presence of ruxolitinib
# Assay type: functional, cell-based
# Condition Details: Homo sapiens
Observation Type: IC50 (nM)

[[record]]
smiles_structure = "Cc1cnc(Nc2ccc(N3CCNCC3)cc2)nc1Nc1cccc(S(=O)(=O)NC(C)(C)C)c1"
observation_type = "IC50"
measure_unit = "nM"
measured_number = 2450


Where do the numbers come from? From ChEMBL document CHEMBL5385890.
